# method.summary: clinical
# settings: female, human, in vivo, AUC0–24
assay.readout: AUC(0-t) (ng·h/mL)

| smiles.entry | numeric.readout |
| --- | --- |
| C[C@H](Cn1cnc2c(N)ncnc21)OCP(=O)(O)O | 2200 |

---

# settings: female, human, in vivo, t1/2, postpartum; with LPV/r; median (IQR)

| smiles.entry | half-life (h) |
| --- | --- |
| C[C@H](Cn1cnc2c(N)ncnc21)OCP(=O)(O)O | 12.5 |

---

# settings: female, human, in vivo, C24, third trimester; without LPV/r, with ATV/r; 24 hour post-dose; median (IQR)

| smiles.entry | concentration at 24 h, ng/mL |
| --- | --- |
| C[C@H](Cn1cnc2c(N)ncnc21)OCP(=O)(O)O | 47 |
